The measured values listed here are drawn from the supplement of paper PMC10307832.

Test system: NCI-H3122
Assay: relative viability (nuclei count vs DMSO), 5 days (fraction); higher = more cells survive
Details: first compound 4 µM
Quick reference for relative viability among some compounds

# Compound, Measured Result
rows = [
    ("Cc1sc2c(c1C)C(c1ccc(Cl)cc1)=N[C@@H](CC(=O)OC(C)(C)C)c1nnc(C)n1-2 [JQ1] + Nc1ncn([C@H]2C[C@H](O)[C@@H](CO)O2)c(=O)n1 [Decitabine] (partner 2 µM)", 0.38),
]

Quick check: relative viability on NCI-H3122, item Cc1sc2c(c1C)C(c1ccc(Cl)cc1)=N[C@@H](CC(=O)OC(C)(C)C)c1nnc(C)n1-2 [JQ1] + C[C@]1(O)C[C@@H](c2nc(-c3ccc4ccc(-c5ccccc5)nc4c3)c3c(N)nccn32)C1 [Linsitinib] (partner 1 µM) ?
0.625

* * *

Tested on: NCI-H2342
Test: relative viability (nuclei count vs DMSO), 5 days (fraction); higher = more cells survive
Details: first compound 0.253 µM
Metric Name: relative viability

# Compound, Assay System, relative viability
data = [
    ("O=c1[nH]c2ccccc2n1C1CCN(CCCC(c2ccc(F)cc2)c2ccc(F)cc2)CC1 [Pimozide] + Nc1nc2[nH]cc(CCc3ccc(C(=O)N[C@@H](CCC(=O)O)C(=O)O)cc3)c2c(=O)[nH]1 [Pemetrexed] (partner 0.2 µM)", "NCI-H2342", 0.757),
    ("O=c1[nH]c2ccccc2n1C1CCN(CCCC(c2ccc(F)cc2)c2ccc(F)cc2)CC1 [Pimozide] + O=C(c1cc(Cc2n[nH]c(=O)c3ccccc23)ccc1F)N1CCN(C(=O)C2CC2)CC1 [Olaparib] (partner 8 µM)", "NCI-H2342", 0.355),
]

Pending compound:
Requested read-out relative viability, target or system NCI-H2342, entry Cc1cnc(-c2cnc(NCCNc3ccc(C#N)cn3)nc2-c2ccc(Cl)cc2Cl)[nH]1 + Nc1nc2[nH]cc(CCc3ccc(C(=O)N[C@@H](CCC(=O)O)C(=O)O)cc3)c2c(=O)[nH]1 [Pemetrexed] (partner 0.2 µM)
0.633

* * *

Tested on: PC-3 [JPC-3]
Experiment: relative viability (nuclei count vs DMSO), 5 days (fraction); higher = more cells survive
Conditions: first compound 0.5 µM
Listing of entries alongside the reported relative viability.
Could you keep your reply to the number by itself?

# Compound, relative viability
rows = [
    ("Nc1ccn([C@@H]2O[C@H](CO)[C@@H](O)[C@@H]2O)c(=O)n1 [Cytarabine] + CC(C)C[C@H](NC(=O)[C@H](Cc1ccccc1)NC(=O)c1cnccn1)B(O)O [Bortezomib] (partner 0.002 µM)", 0.511),
]

Could you now consider this next compound?
Requested field: relative viability. Item: Nc1ccn([C@@H]2O[C@H](CO)[C@@H](O)[C@@H]2O)c(=O)n1 [Cytarabine] + CCNC(=O)c1noc(-c2cc(C(C)C)c(O)cc2O)c1-c1ccc(CN2CCOCC2)cc1 [Luminespib] (partner 0.01 µM)
0.551

* * *

Tested on: HCC-78
Test: relative viability (nuclei count vs DMSO), 5 days (fraction); higher = more cells survive
Details: first compound 500 µM
// boundary case: relative viability equal to 0.5 maps to -1; strictly smaller maps to 1

# Compound, Discrete Label
rows = [
    ("O=C(O)CCCCC(CCSCc1ccccc1)SCc1ccccc1 (centres undefined) [CPI-613] + N=C(N)NC(=N)NCCc1ccccc1 [Phenformin] (partner 250 µM)", -1),
]

# strict comparison: is reported relative viability < 0.5? input = O=C(O)CCCCC(CCSCc1ccccc1)SCc1ccccc1 (centres undefined) [CPI-613] + CC(C)C[C@H](NC(=O)[C@H](Cc1ccccc1)NC(=O)c1cnccn1)B(O)O [Bortezomib] (partner 0.002 µM)
-1

Please check: relative viability for O=C(O)CCCCC(CCSCc1ccccc1)SCc1ccccc1 (centres undefined) [CPI-613] + NC(=O)Nc1cc(-c2cccc(F)c2)sc1C(=O)N[C@H]1CCCNC1 [AZD7762] (partner 0.2 µM) , strictly under 0.5 or not?
-1

Does this compound meet the criterion relative viability < 0.5? O=C(O)CCCCC(CCSCc1ccccc1)SCc1ccccc1 (centres undefined) [CPI-613] + Cc1nc(Nc2ncc(C(=O)Nc3c(C)cccc3Cl)s2)cc(N2CCN(CCO)CC2)n1 [Dasatinib] (partner 0.075 µM)
1

Strictly below 0.5: is that where relative viability of O=C(O)CCCCC(CCSCc1ccccc1)SCc1ccccc1 (centres undefined) [CPI-613] + COc1cccc2cc(-c3nc([C@H]4CC[C@H](C(=O)O)CC4)n4ncnc(N)c34)[nH]c12 [OSI-027] (partner 0.5 µM) sits?
1

* * *

Tested on: NCI-H1355
Assay: relative viability (nuclei count vs DMSO), 5 days (fraction); higher = more cells survive
Conditions: first compound 0.000632 µM
Assign labels as follows, please: true (1) for relative viability below 0.9; false (0) for relative viability equal to or exceeding 0.9.

Solved cases below.
# Molecule, Discrete Label
records = [
    ("CC(=O)O[C@@]12CO[C@@H]1C[C@H](O)[C@@]1(C)C(=O)[C@H](O)C3=C(C)[C@@H](OC(=O)[C@H](O)[C@@H](NC(=O)OC(C)(C)C)c4ccccc4)C[C@@](O)([C@@H](OC(=O)c4ccccc4)[C@H]21)C3(C)C [Docetaxel] + CC(C)C[C@H](NC(=O)[C@H](Cc1ccccc1)NC(=O)c1cnccn1)B(O)O [Bortezomib] (partner 0.002 µM)", "false (0)"),
    ("CC(=O)O[C@@]12CO[C@@H]1C[C@H](O)[C@@]1(C)C(=O)[C@H](O)C3=C(C)[C@@H](OC(=O)[C@H](O)[C@@H](NC(=O)OC(C)(C)C)c4ccccc4)C[C@@](O)([C@@H](OC(=O)c4ccccc4)[C@H]21)C3(C)C [Docetaxel] + Cc1nc(NC(=O)N2CCC[C@H]2C(N)=O)sc1-c1ccnc(C(C)(C)C(F)(F)F)c1 [Alpelisib] (partner 2 µM)", "true (1)"),
    ("CC(=O)O[C@@]12CO[C@@H]1C[C@H](O)[C@@]1(C)C(=O)[C@H](O)C3=C(C)[C@@H](OC(=O)[C@H](O)[C@@H](NC(=O)OC(C)(C)C)c4ccccc4)C[C@@](O)([C@@H](OC(=O)c4ccccc4)[C@H]21)C3(C)C [Docetaxel] + CS(=O)(=O)CCNCc1ccc(-c2ccc3ncnc(Nc4ccc(OCc5cccc(F)c5)c(Cl)c4)c3c2)o1 [Lapatinib] (partner 2 µM)", "false (0)"),
    ("CC(=O)O[C@@]12CO[C@@H]1C[C@H](O)[C@@]1(C)C(=O)[C@H](O)C3=C(C)[C@@H](OC(=O)[C@H](O)[C@@H](NC(=O)OC(C)(C)C)c4ccccc4)C[C@@](O)([C@@H](OC(=O)c4ccccc4)[C@H]21)C3(C)C [Docetaxel] + COc1cccc2cc(-c3nc([C@H]4CC[C@H](C(=O)O)CC4)n4ncnc(N)c34)[nH]c12 [OSI-027] (partner 0.5 µM)", "true (1)"),
    ("CC(=O)O[C@@]12CO[C@@H]1C[C@H](O)[C@@]1(C)C(=O)[C@H](O)C3=C(C)[C@@H](OC(=O)[C@H](O)[C@@H](NC(=O)OC(C)(C)C)c4ccccc4)C[C@@](O)([C@@H](OC(=O)c4ccccc4)[C@H]21)C3(C)C [Docetaxel] + CC(=O)c1c(C)c2cnc(Nc3ccc(N4CCNCC4)cn3)nc2n(C2CCCC2)c1=O [Palbociclib] (partner 0.5 µM)", "true (1)"),
]

Report whether reported relative viability is lower than 0.9 (strictly) for CC(=O)O[C@@]12CO[C@@H]1C[C@H](O)[C@@]1(C)C(=O)[C@H](O)C3=C(C)[C@@H](OC(=O)[C@H](O)[C@@H](NC(=O)OC(C)(C)C)c4ccccc4)C[C@@](O)([C@@H](OC(=O)c4ccccc4)[C@H]21)C3(C)C [Docetaxel] + C[C@]1(O)C[C@@H](c2nc(-c3ccc4ccc(-c5ccccc5)nc4c3)c3c(N)nccn32)C1 [Linsitinib] (partner 1 µM)
true (1)

Does CC(=O)O[C@@]12CO[C@@H]1C[C@H](O)[C@@]1(C)C(=O)[C@H](O)C3=C(C)[C@@H](OC(=O)[C@H](O)[C@@H](NC(=O)OC(C)(C)C)c4ccccc4)C[C@@](O)([C@@H](OC(=O)c4ccccc4)[C@H]21)C3(C)C [Docetaxel] + O=C(c1cc(Cc2n[nH]c(=O)c3ccccc23)ccc1F)N1CCN(C(=O)C2CC2)CC1 [Olaparib] (partner 8 µM) have relative viability strictly under 0.9?
true (1)

Check if relative viability falls below 0.9 for CC(=O)O[C@@]12CO[C@@H]1C[C@H](O)[C@@]1(C)C(=O)[C@H](O)C3=C(C)[C@@H](OC(=O)[C@H](O)[C@@H](NC(=O)OC(C)(C)C)c4ccccc4)C[C@@](O)([C@@H](OC(=O)c4ccccc4)[C@H]21)C3(C)C [Docetaxel] + Cc1nc(Nc2ncc(C(=O)Nc3c(C)cccc3Cl)s2)cc(N2CCN(CCO)CC2)n1 [Dasatinib] (partner 0.075 µM) .
true (1)
